System: P388 leukemia ip, CD2F1 mice, survival T/C
Assay: NCI In Vivo Anticancer Drug Screen. Data for tumor model P388 Leukemia (intraperitoneal) in CD2F1 (CDF1) mice
Details: endpoint: median survival time; dose: 200.0 mg/kg/injection; schedule: Q01DX005 (ip); vehicle: saline with Tween-80; higher = longer survival
Toxic doses and inconclusive results are not listed.
READOUT KIND: T/C

* CC1(C)OC2(C)CCC1C1C2N1C(=O)Nc1cccc(Cl)c1 (configuration not stated) | 89 % of control
* C#CCn1c2c(c3ccccc3c1=O)C(=O)c1ccccc1-2 | 101 % of control
* COC(=O)n1nc(C)c(N(C)C)n1 | 113 % of control
* O=C(/C=C/c1ccc2c(c1)OCO2)c1cc(Cl)ccc1O | 102 % of control
* c1csc(C2=NCCC2)c1 | 102 % of control
* O=c1[nH]cnc2ccc3[nH]ncc3c12 | 105 % of control
* COc1ccc(/C(CC2(O)C(=O)Nc3ccccc32)=N\NC(=O)NN)cc1O (configuration not stated) | 100 % of control
* CCCCCCN(CCCCCC)C(C)C(=O)c1ccc2cc(Br)c3ccccc3c2c1 (configuration not stated) | 94 % of control
* Cc1ncc(C(=O)O)c2c1OC(C)(C)OC2 | 98 % of control
* COc1cc(COC(=O)Nc2ccccc2F)cc(OC)c1OC | 92 % of control
* O=C(O)CCCC1CCCCC1.[Mn] | 99 % of control
* FC(F)(F)c1cccc(-n2nnnc2Oc2ccc(-c3ccccc3)cc2)c1 | 90 % of control
* Cc1cccc2c(=O)c(CCl)c(-c3ccccc3)sc12 | 119 % of control
* NC(=S)n1nc(-c2ccccc2)c(N=Nc2ccc(Cl)cc2Cl)c1-c1ccccc1 | 96 % of control
* CC1(C)c2ccccc2-c2nc3ccccc3cc2C1(Br)Br | 120 % of control
* CCC1(C=O)NC(=O)NC1=O (configuration not stated) | 87 % of control
* O=c1c2[nH]c3ccccc3sc=2c(=O)n1-c1ccccc1Cl | 97 % of control
* CCOc1ccccc1NC(=O)CC(=O)N1N=C(C)C(N=Nc2ccccc2C(=O)O)C1=O (configuration not stated) | 92 % of control
* CC(=O)N(O)c1ccc2c(c1)Cc1cc(F)ccc1-2 | 123 % of control
* Cc1cc(=O)c2c3c(ccc2[nH]1)Oc1ccccc1O3 | 100 % of control
* CCC1C(=O)C=C(c2ccccc2)CC1c1ccccc1 (configuration not stated) | 93 % of control
* COc1cc(C(C)=O)c(C2=NC(C)(C)CO2)cc1C | 97 % of control
* COCC1(C)CC2CCCCC2CC1(C)O (configuration not stated) | 86 % of control
* OC1(c2cc3ccccc3c3ccccc23)c2ccccc2-c2ccccc21 | 100 % of control
* CC1=Nc2ccccc2OC2(C1)C(C1COC(C)(C)O1)OC1OC(C)(C)OC12 (configuration not stated) | 104 % of control
* O=C(CCCl)Nc1c(Cl)cccc1Cl | 96 % of control
* COC(=O)C(CC(C)C)NC(=O)C(Cc1cnc[nH]1)NC(=O)C(CS)N(C(=O)OCc1ccccc1)C(=O)OCc1ccccc1 (configuration not stated) | 100 % of control

----------
Below: a set of entries, each annotated with reported T/C.
System: P388 leukemia ip, CD2F1 mice, survival T/C
Assay: NCI In Vivo Anticancer Drug Screen. Data for tumor model P388 Leukemia (intraperitoneal) in CD2F1 (CDF1) mice
Conditions: endpoint: median survival time; dose: 50.0 mg/kg/injection; schedule: Q01DX009 (ip); vehicle: saline with Tween-80; higher = longer survival
Toxic doses and inconclusive results are not listed.
READOUT KIND: T/C

- CCOC(=O)c1c(NC(=S)NC)sc(C)c1C: 106 % of control
- Cn1/c2cc/c1=C(\c1ccc(S(=O)(=O)O)cc1)c1ccc([n-]1)/C(c1ccc(S(=O)(=O)O)cc1)=c1/cc/c([nH]1)=C(\c1ccc(S(=O)(=O)O)cc1)c1ccc([n-]1)/C=2c1ccc(S(=O)(=O)O)cc1.O.O=S(=O)(O)C(F)(F)F.[Cu+2]: 119 % of control
- COc1ccc(Nc2c3ccccc3nc3ccccc23)cc1: 151 % of control
- CC1(C)CCCc2conc21: 96 % of control
- c1ccc2c(c1)[nH]c1ccncc12: 95 % of control
- CCOC(=O)CCCCCNc1nc(Cl)nc(Cl)n1: 98 % of control
- COc1ccc(Cl)cc1NC(=O)NNC(=O)C(=O)NC1CC1: 100 % of control
- Clc1ccc(N=c2ccn3ccccc3c2)cc1Cl: 97 % of control
- CC(C)(C)N1CCC1C(=O)O (stereo not drawn): 92 % of control
- O=S1(=O)CC(N2CCCCC2)C=C(c2ccccc2)O1 (stereo not drawn): 103 % of control
- CCCCCCOCC(=O)OC: 103 % of control
- COc1ccc2nc3cc(Cl)ccc3c(NCCNCCNCCNc3c4ccc(Cl)cc4nc4ccc(OC)cc34)c2c1: 115 % of control
- O=[N+]([O-])CC(OCCCCCCO)C(Cl)(Cl)Cl (stereo not drawn): 100 % of control
- O=C(CNC(c1ccccc1)(c1ccccc1)c1ccccc1)OC(c1ccccc1)c1ccccc1: 104 % of control
- CCCc1cc(-c2cccc3ccccc23)c(CCC)c2c1-c1cccc3cccc-2c13: 97 % of control
- C/C(=N/O)[c-]1[c-][c-][c-][c-]1.[Fe].[c-]1[c-][c-][cH-][c-]1: 115 % of control
- CCOC1=CC(=O)/C(=C/O[Si](C)(C)C)CC1: 103 % of control
- NNC(=O)CNC(=O)Nc1cccc(C(F)(F)F)c1: 100 % of control
- CNc1ccccc1C(=O)NN=C1c2ccccc2-c2ccccc21: 100 % of control
- CC1=CCCC2C1(C)CCC(C)C2(C)Cc1cc(O)ccc1O (stereo not drawn): 107 % of control
- CC1=NN(C(=O)c2ccncc2)C(=O)C1N=Nc1ccc(C)cc1 (stereo not drawn): 105 % of control
- NC(CC(=O)O)c1ccccc1 (stereo not drawn): 107 % of control
- CCCN(CCC)CCCC#N: 90 % of control

----------
System: P388 leukemia ip, CD2F1 mice, survival T/C
Assay: NCI In Vivo Anticancer Drug Screen. Data for tumor model P388 Leukemia (intraperitoneal) in CD2F1 (CDF1) mice
Conditions: endpoint: median survival time; dose: 100.0 mg/kg/injection; schedule: Q01DX001 (ip); vehicle: saline; higher = longer survival
Toxic doses and inconclusive results are not listed.
READOUT KIND: T/C

• CCCC(=O)N1CCCCC1CC (configuration not stated) = 100 % of control
• CCN(CC)P(c1ccccc1)N(CC)CC = 101 % of control
• OCCCCC/C=C/CCCCCCC1C=CCC1 (configuration not stated) = 99 % of control
• CCNC(=O)/N=c1/sc([N+](=O)[O-])cn1CC(=O)N(C)C(=O)OCC = 100 % of control
• COC(=O)CCCCCCCCCCCC1C=CCC1 (configuration not stated) = 105 % of control
• COc1cc(C=NC2CCCCC2)cc(OC)c1OC = 104 % of control
• COCc1cccc2ccnc(COC)c12 = 100 % of control

----------
In this section, each of the compounds is paired with its reported T/C.
System: P388 leukemia ip, CD2F1 mice, survival T/C
Experiment: NCI In Vivo Anticancer Drug Screen. Data for tumor model P388 Leukemia (intraperitoneal) in CD2F1 (CDF1) mice
Details: endpoint: median survival time; dose: 25.0 mg/kg/injection; schedule: Q01DX009 (ip); vehicle: saline with Tween-80; higher = longer survival
Inconclusive results and toxic doses are left out.
READOUT KIND: T/C

• Cc1ccccc1S(=O)(=O)F = 100 % of control
• NC(Cc1ccc(OC(c2ccccc2)c2ccccc2)cc1)C(=O)O (centres undefined) = 98 % of control
• N#CC1=C(C#N)C(=O)c2ccccc2C1=O = 104 % of control
• CCCCCCCCCCCCCCCC(=O)NCCN(CC)CC = 100 % of control
• Clc1ccc(OCCC(Cn2ccnc2)c2ccc(Cl)cc2Cl)c(Cl)c1 (centres undefined) = 112 % of control
• NC(CO)C(O)c1ccc(N=Nc2ccc(O)cc2)cc1 (centres undefined) = 95 % of control
• Nc1[nH]nc(Nc2cccc(Cl)c2Cl)c1C(=O)c1cccs1 = 99 % of control
• COc1ccc(C(C)(C)CC(C)(C)C)cc1 = 104 % of control
• CSc1nc(C)c(Br)c(Nc2ccc(C(N)=O)cc2)n1 = 94 % of control
• O=C1NC(=O)C(=Cc2c(Cl)cccc2Cl)C(=O)N1 = 122 % of control
• Cc1ccc(N=C(SSC(Cl)(Cl)Cl)SSC(Cl)(Cl)Cl)cc1 = 100 % of control
• CCN1CCCC(OC(=O)c2cccc3[nH]ccc23)C1 (centres undefined) = 99 % of control
• c1ccc(N=P(c2ccccc2)(c2ccccc2)c2ccccc2)cc1 = 96 % of control
• c1ccc(C2=NCN3CC23c2ccccc2)cc1 (centres undefined) = 98 % of control
• CCCCN(CCCC)CC(O)c1c(Br)c2ccccc2c2ccccc12 (centres undefined) = 109 % of control
• CC(C)(C)OC(=O)O/N=C(\C#N)c1ccccc1 = 104 % of control
• CC(C)(C)OC(=O)NC(Cc1c[nH]c2ccccc12)C(=O)ON1C(=O)CCC1=O (centres undefined) = 97 % of control
• CCOC(CNc1cnc(NC(C)=O)[nH]c1=O)OCC = 102 % of control
• CCOC(=O)NNc1nc(-c2ccccc2)nc2nonc12 = 91 % of control
• CCCCCCCCCCCC(=O)OCCN(CCOC(=O)CCCCCCCCCCC)C(=O)COC(=O)CCCCCCCCCCC = 100 % of control
• c1ccc2c(c1)[nH]c1ccncc12 = 95 % of control
• COc1cc(C(C)(C)C)cc(OC)c1C(O)(c1c(OC)cc(C(C)(C)C)cc1OC)c1c(OC)cc(C(C)(C)C)cc1OC = 121 % of control
• CSc1nc(SC)c2nc(SC)n(-c3ccccc3)c2n1 = 97 % of control
• CC1=CCCC2C1(C)CCC(C)C2(C)Cc1cc(O)ccc1O (centres undefined) = 103 % of control
